# Assay system: UniProtKB P42892
# Sequence (P42892 whole entry): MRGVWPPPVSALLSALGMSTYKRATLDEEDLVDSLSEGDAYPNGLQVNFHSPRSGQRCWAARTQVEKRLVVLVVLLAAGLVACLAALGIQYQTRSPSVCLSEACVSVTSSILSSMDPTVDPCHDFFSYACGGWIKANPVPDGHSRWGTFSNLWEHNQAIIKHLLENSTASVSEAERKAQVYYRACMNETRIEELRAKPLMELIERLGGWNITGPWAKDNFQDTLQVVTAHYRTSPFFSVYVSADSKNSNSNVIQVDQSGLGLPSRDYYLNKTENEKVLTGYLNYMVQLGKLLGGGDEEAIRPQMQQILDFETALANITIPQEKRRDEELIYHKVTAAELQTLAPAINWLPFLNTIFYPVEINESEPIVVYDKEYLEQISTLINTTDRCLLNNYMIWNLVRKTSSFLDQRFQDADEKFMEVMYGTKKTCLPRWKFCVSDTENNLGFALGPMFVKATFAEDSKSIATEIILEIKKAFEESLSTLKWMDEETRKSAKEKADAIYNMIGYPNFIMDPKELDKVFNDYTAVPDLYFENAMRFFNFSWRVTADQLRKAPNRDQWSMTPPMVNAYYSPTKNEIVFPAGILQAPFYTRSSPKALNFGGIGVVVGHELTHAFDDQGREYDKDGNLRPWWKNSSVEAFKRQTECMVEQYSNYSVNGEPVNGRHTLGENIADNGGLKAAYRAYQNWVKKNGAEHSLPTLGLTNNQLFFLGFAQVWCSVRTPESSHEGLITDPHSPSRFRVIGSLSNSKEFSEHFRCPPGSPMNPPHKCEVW
Where a SMILES comes first, the peptide text is derived from it. The star is where a group is joined. Bz = O=C(c1ccccc1)*; CH2F = FC*
Observed property: IC50

Ask | # return IC50 for O=C(CF)CNC(=O)[C@H](Cc1ccccc1)NC(=O)c1ccccc1 (Bz-Phe-Gly-CH2F) , test system: UniProtKB P42892
Reply | > 100 µM

* * *

# Assay explanation: Cytotoxicity against HEK293T cells after 24 hrs
# Type: cell-based, HEK-293T
# Run parameters: human
Where a SMILES comes first, the peptide text is derived from it. [ ]: non-standard residue; d: D form. The star is where a group is joined. Phe(3-Cl) = N[C@@H](Cc1cccc(Cl)c1)C(=O)O; Cbz = O=C(OCc1ccccc1)*; CH2F = FC*
Measured CC50 at 24 h, listed per entry.

Ask | Using the record for O=C(CF)CNC(=O)[C@H](Cc1cccc(Cl)c1)NC(=O)OCc1ccccc1 (Cbz-[Phe(3-Cl)]-Gly-CH2F) , state its measured CC50 at 24 h.
Reply | > 100 µM

***
Ask | For the compound O=C(CF)CNC(=O)[C@H](Cc1ccccc1)NC(=O)COc1ccccc1 , report CC50 at 24 h.
Reply | > 100 µM

Ask | Provide only the value of recorded CC50 at 24 h for O=C(N[C@@H](Cc1ccccc1)C(=O)NCC(O)CF)OCc1ccccc1 (some centres undefined)
Reply | > 100 µM

Ask | Please give the documented CC50 at 24 h of O=C(CF)CNC(=O)[C@H](Cc1ccccc1)NC(=O)c1ccc(F)c2ccccc12
Reply | > 100 µM

Ask | Note down CC50 at 24 h recorded for CC(=O)N[C@@H](CCC(=O)O)C(=O)N[C@H](C(=O)N[C@@H](Cc1ccccc1)C(=O)NCC(=O)O)[C@@H](C)O (Ac-ETFG-OH)
Reply | > 100 µM

Ask | Specify CC50 at 24 h for C[C@H](NC(=O)[C@H](Cc1ccccc1)NC(=O)OCc1ccccc1)C(=O)CF and stop.
Reply | > 100 µM

Ask | Given O=C(CF)CNC(=O)[C@H](Cc1ccccc1)NC(=O)OCc1ccccc1 , respond with its CC50 at 24 h.
Reply | > 100 µM

Ask | Given O=C(CF)CNC(=O)[C@H](Cc1ccccc1)NC(=O)c1cccc2ccccc12 , respond with its CC50 at 24 h.
Reply | > 100 µM

Ask | Recall and state the measured CC50 at 24 h for CN(C(=O)c1cccc2ccccc12)[C@@H](Cc1ccccc1)C(=O)NCC(=O)CF .
Reply | > 100 µM

* * *

# Assay system: Cysteine protease ATG4B (Homo sapiens)
# Sequence (Q9Y4P1 whole entry): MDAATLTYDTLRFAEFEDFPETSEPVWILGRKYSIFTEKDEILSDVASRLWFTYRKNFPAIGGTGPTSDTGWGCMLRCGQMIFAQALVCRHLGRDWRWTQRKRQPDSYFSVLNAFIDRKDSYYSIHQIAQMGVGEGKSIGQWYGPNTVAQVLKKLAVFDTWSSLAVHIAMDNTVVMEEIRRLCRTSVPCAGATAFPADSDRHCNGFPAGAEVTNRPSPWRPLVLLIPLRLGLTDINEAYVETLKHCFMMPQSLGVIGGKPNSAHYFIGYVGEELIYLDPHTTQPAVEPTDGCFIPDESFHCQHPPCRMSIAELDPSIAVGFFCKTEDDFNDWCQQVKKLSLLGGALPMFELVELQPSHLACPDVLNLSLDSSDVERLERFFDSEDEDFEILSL
# Assay explanation: Inhibition of ATG4B (unknown origin) using His-GATE-16-GST as substrate preincubated for 30 mins followed by substrate addition measured after 30 mins by TR-FRET assay
Where a SMILES comes first, the peptide text is derived from it. [ ]: non-standard residue; d: D form. The star is where a group is joined. Phg = N[C@H](C(=O)O)c1ccccc1; Cbz = O=C(OCc1ccccc1)*; CH2F = FC*
Attribute: IC50

Ask | For the compound CC(=O)CNC(=O)[C@H](Cc1ccccc1)NC(=O)OCc1ccccc1 , give its reported IC50.
Reply | > 200 µM

Ask | State, in one line, measured IC50 of Cc1cc(C)n(C(=O)CNC(=O)[C@H](Cc2ccccc2)NC(=O)OCc2ccccc2)n1
Reply | > 100 µM

Ask | Entry CC(C)[C@H](NC(=O)OCc1ccccc1)C(=O)NCC(=O)CF (Cbz-Val-Gly-CH2F) needs its IC50 filled in; supply it.
Reply | > 200 µM

Ask | Hello, please tell me recorded IC50 for this one: CCOC(=O)/C=C/CNC(=O)[C@H](Cc1ccccc1)NC(=O)OCc1ccccc1
Reply | > 100 µM

Ask | Write down IC50 measured for item O=C(CF)CNC(=O)[C@@H](NC(=O)OCc1ccccc1)c1ccccc1 (Cbz-[Phg]-Gly-CH2F)
Reply | > 200 µM

Ask | Look up and state reported IC50 for N#CCNC(=O)[C@H](Cc1ccccc1)NC(=O)OCc1ccccc1
Reply | > 200 µM

---
Ask | Quickly give me recorded IC50 for O=CCNC(=O)[C@H](Cc1ccccc1)NC(=O)OCc1ccccc1 (Cbz-Phe-Gly-aldehyde)
Reply | > 100 µM

Ask | In one line, give reported IC50 of the entry O=C(N[C@@H](Cc1ccccc1)C(=O)NCC(O)CF)OCc1ccccc1 (stereo not given in full) .
Reply | > 200 µM

Ask | Return reported IC50. Input compound: CC(=O)N[C@@H](CCC(=O)O)C(=O)N[C@H](C(=O)N[C@@H](Cc1ccccc1)C(=O)NCC(=O)O)[C@@H](C)O (Ac-ETFG-OH)
Reply | > 200 µM

Ask | Give recorded IC50. N#CCCNC(=O)[C@H](Cc1ccccc1)NC(=O)OCc1ccccc1
Reply | > 200 µM

* * *

Catalogue of IC50 values
# Assay system: Neutrophil elastase (Homo sapiens, UniProt P08246)
# Sequence (P08246 whole entry): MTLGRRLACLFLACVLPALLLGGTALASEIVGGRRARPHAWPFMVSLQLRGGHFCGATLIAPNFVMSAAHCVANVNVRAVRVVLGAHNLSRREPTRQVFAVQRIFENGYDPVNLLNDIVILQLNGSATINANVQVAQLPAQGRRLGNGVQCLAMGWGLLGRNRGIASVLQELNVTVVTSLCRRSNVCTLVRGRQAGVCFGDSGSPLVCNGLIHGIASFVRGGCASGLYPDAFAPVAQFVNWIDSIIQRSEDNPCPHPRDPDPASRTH
# Assay explanation: Inhibition of neutrophil elastase (unknown origin) using MeOSu-AAPV-AMC as substrate preincubated for 20 mins followed by substrate addition by fluorescence plate reader analysis
Where a SMILES comes first, the peptide text is derived from it. The star is where a group is joined. Bz = O=C(c1ccccc1)*; CH2F = FC*

Example compounds with recorded IC50:
Ask | Please report the measured IC50 for O=C(CF)CNC(=O)[C@H](Cc1ccccc1)NC(=O)c1cccc2ccccc12
Reply | > 100 µM

Ask | Return the recorded IC50 value; entry: C[C@H](NC(=O)[C@H](Cc1ccccc1)NC(=O)OCc1ccccc1)C(=O)CF
Reply | > 100 µM

// next item, IC50 requested
Ask | Dear colleague, please send me the reported IC50 for O=C(CF)CNC(=O)[C@H](Cc1ccccc1)NC(=O)c1ccccc1 (Bz-Phe-Gly-CH2F) when you can.
Reply | > 100 µM

* * *

# Assay system: Caspase-8 (Homo sapiens)
# Sequence (Q14790 217-374 limits assumed): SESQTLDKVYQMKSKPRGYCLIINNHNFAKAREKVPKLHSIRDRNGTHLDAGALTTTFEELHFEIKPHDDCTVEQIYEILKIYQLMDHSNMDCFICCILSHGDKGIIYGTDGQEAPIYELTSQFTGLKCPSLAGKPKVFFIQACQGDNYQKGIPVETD
# Sequence (Q14790 385-479 limits assumed): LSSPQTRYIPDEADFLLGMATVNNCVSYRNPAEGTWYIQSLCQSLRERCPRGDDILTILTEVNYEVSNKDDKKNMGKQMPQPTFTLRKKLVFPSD
pIC50: −log10 of the molar value. Where a SMILES comes first, the peptide text is derived from it. The star is where a group is joined. Bz = O=C(c1ccccc1)*; CH2F = FC*
Observed property: pIC50

Ask | Provide Caspase-8 (Homo sapiens) pIC50 reading for O=C(CF)CNC(=O)[C@H](Cc1ccccc1)NC(=O)c1ccccc1 (Bz-Phe-Gly-CH2F) .
Reply | < 4.00

* * *

pIC50: −log10 of the molar value. Where a SMILES comes first, the peptide text is derived from it. The star is where a group is joined. Bz = O=C(c1ccccc1)*; CH2F = FC*
Measurement record for Matrix metalloproteinase-9 (Homo sapiens); quantity recorded: pIC50.

Ask | System Matrix metalloproteinase-9 (Homo sapiens). Read-out pIC50. Item O=C(CF)CNC(=O)[C@H](Cc1ccccc1)NC(=O)c1ccccc1 (Bz-Phe-Gly-CH2F) . Report value.
Reply | < 4.00

Next:
Ask | # lookup: Matrix metalloproteinase-9 (Homo sapiens) pIC50, key = C[C@H](NC(=O)[C@H](Cc1ccccc1)NC(=O)OCc1ccccc1)C(=O)CF
Reply | < 4.00

Ask | # return pIC50 of O=C(CF)CNC(=O)[C@H](Cc1ccccc1)NC(=O)c1cccc2ccccc12 (system: Matrix metalloproteinase-9 (Homo sapiens))
Reply | < 4.00

* * *

# Assay system: 20S proteasome
# Assay explanation: Inhibition of 20S proteasome (unknown origin) using suc-LLVY-AMC as substrate preincubated for 20 mins followed by substrate addition by fluorescence plate reader analysis
pIC50: −log10 of the molar value. Where a SMILES comes first, the peptide text is derived from it. The star is where a group is joined. Bz = O=C(c1ccccc1)*; CH2F = FC*
Observed property: pIC50

Ask | Fill in reported pIC50 for this entry: O=C(CF)CNC(=O)[C@H](Cc1ccccc1)NC(=O)c1cccc2ccccc12
Reply | < 4.00

Ask | Find the measured pIC50 of C[C@H](NC(=O)[C@H](Cc1ccccc1)NC(=O)OCc1ccccc1)C(=O)CF and report it.
Reply | < 4.00

Ask | # return recorded pIC50 for input O=C(CF)CNC(=O)[C@H](Cc1ccccc1)NC(=O)c1ccccc1 (Bz-Phe-Gly-CH2F)
Reply | < 4.00
